Assay: Cytotoxicity against wild type mouse RAW264.7 cells assessed as survival rate at 100 ug/ml measured for 24 hrs by trypan blue assay relative to control
Format: cell-based
Conditions: wild type RAW264.7 cells, read-out: Survival
Quantity: viability at 24 h, 100 ug/ml (%)
Give bare numbers, in %.

Find the recorded viability at 24 h, 100 ug/ml belonging to CC(=O)N[C@H]1C(O)O[C@H](CO)[C@@H](O)[C@@H]1O[C@H](C)C(=O)N[C@@H](C)C(=O)N[C@H](CCC(=O)O)C(N)=O (stereo partly specified) [MURAMYL DIPEPTIDE] and report it.
89

----------
Test: Cytotoxicity against wild type mouse RAW264.7 cells assessed as survival rate at 1 mg/ml measured for 24 hrs by trypan blue assay relative to control
Type: cell-based
Conditions: wild type RAW264.7 cells, read-out: Survival
Quantity: viability at 24 h, 1 mg/ml (%)
One number for each entry, in %.

Consider the compound CC(=O)N[C@H]1C(O)O[C@H](CO)[C@@H](O)[C@@H]1O[C@H](C)C(=O)N[C@@H](C)C(=O)N[C@H](CCC(=O)O)C(N)=O (stereo partly specified) [MURAMYL DIPEPTIDE] and give its measured viability at 24 h, 1 mg/ml.
88

----------
Assay: Cytotoxicity against wild type mouse RAW264.7 cells assessed as survival rate at 10 ug/ml measured for 24 hrs by trypan blue assay relative to control
Assay type: cell-based
Conditions: wild type RAW264.7 cells, read-out: Survival
Quantity: viability at 24 h, 10 ug/ml
The reply should read as a number followed by its unit.

Please look up its viability at 24 h, 10 ug/ml: CC(=O)N[C@H]1C(O)O[C@H](CO)[C@@H](O)[C@@H]1O[C@H](C)C(=O)N[C@@H](C)C(=O)N[C@H](CCC(=O)O)C(N)=O (stereo partly specified) [MURAMYL DIPEPTIDE]
92%
